Assay: reduction of polyQ htt aggregates in cells – imaging, exon1htt(103Q)mCFP cells, high-content imaging, primary screen (AID 483);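 also: compound exposure lasted 3 days before fixation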
Details: exon1htt(103Q)mCFP cell line, aggregate imaging, at 2 µM
Active and inactive are the calls of the source.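 The calls were made as follows: active = visual image review flags a hit and inhibition of aggregation exceeds 20%; inconclusive = visual hit but inhibition at or below 20%; inactive = no hit on visual image review.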
Just give me one of these, please: true (active), false (inactive)

>>> classification("COc1ccc(CC(NC(C)=O)C(=O)NC2CCN(C(=O)Nc3ccc(C#N)cc3)CC2)cc1OC (stereo unspecified)")
"false"
>>> classification("CCCc1cc(C(N)=O)c(NC(=O)c2ccco2)s1")
"false"
>>> classification("Cc1cnnc2c1-c1nonc1CC2")
"false"
>>> classification("Cc1cc(C)c(Cn2c(=O)n(CCCC(=O)NCc3ccco3)c(=O)c3ccccc32)c(C)c1")
"false"
>>> classification("Cc1ccccc1C(=O)N1CCC(C(=O)Nc2ccc(S(=O)(=O)N3CCCC3)cc2)CC1")
"false"

Ask | For this molecule, state the assay outcome: CC1CCN(C(=O)Cn2c(=O)oc3ccccc32)CC1
Reply | false

Ask | Here is the next molecule: CCOC(=O)C1=C(C)Nc2ncnn2C1c1cc(OC)ccc1OC (stereo unspecified)
Reply | false

Ask | And the next one, CCOC(=O)c1ccc(NC(=O)CCc2nc(-c3ccc(C)cc3)no2)cc1 ?
Reply | false

Ask | One more molecule: COC(=O)c1ccccc1NC(=O)Nc1cc(C)cc(C)n1
Reply | false

Ask | Another molecule to look at: COc1ccccc1CNS(=O)(=O)c1cccc(S(=O)(=O)N2CCOCC2)c1
Reply | false

Ask | Request: Cc1onc(-c2c(Cl)cccc2Cl)c1C(=O)NCCCN1CCOCC1
Reply | false

Ask | Similarly, Cc1ccc(N2CC(C(=O)N3CCN(C(=O)c4ccco4)CC3)CC2=O)cc1 (stereo unspecified) ?
Reply | false

Ask | For COc1cc2[nH]c(=O)n(CCCCCC(=O)NCCCN3CCCC3=O)c(=O)c2cc1OC then?
Reply | false

Ask | // query: COc1ccc(CCNC(=O)c2nc3ncccn3n2)cc1OC
Reply | false

Ask | Note, next up: COc1ccccc1C(=O)n1nc(-c2ccccc2)nc1N
Reply | false

Ask | Entry to check: O=c1c(-c2ccc(F)cc2)coc2c3c(ccc12)OCCO3
Reply | false

Ask | Note, next up: COc1ccccc1Nc1nc(N)nc(CN2CCN(c3ccccc3F)CC2)n1
Reply | false

Ask | Same thing, different molecule: O=C(c1ccccc1)c1ccc2nc[nH]c2c1
Reply | false

Ask | Same question for CCCOc1ccc2nc(NC(=O)OC)[nH]c2c1 please.
Reply | false

Ask | Also need O=C(CSc1nnc(-c2cccs2)o1)N1CCOCC1 , thanks.
Reply | false

Ask | Same lookup for NS(=O)(=O)c1ccc(NCc2c(F)cccc2Cl)cc1 , please.
Reply | false

Ask | Field entry: O=C(Nc1ccccc1)c1ccc(NCC2CCCO2)c(S(=O)(=O)N2CCOCC2)c1 (stereo unspecified)
Reply | false

Ask | // next record CC1=C(C(N)=O)C(c2ccc(Cl)cc2Cl)n2ncnc2N1 (stereo unspecified)
Reply | false

Ask | Next entry: CCOC(=O)C1CCN(Cc2ccc(C(=O)OC)cc2)CC1
Reply | false

Ask | Same read-out for CSc1nc(NC(C)(C)C)nc(Oc2ccc(=O)[nH]n2)n1 ?
Reply | false

Ask | Next: Cn1c(Cc2ccccc2)nnc1SCC(=O)NC1CCCCC1
Reply | false

Ask | Moving on to the next molecule: O=C(Nc1cccc(F)c1)N1CC=C(n2c(=O)[nH]c3ccccc32)CC1
Reply | false
